- STUDY SYSTEM: T1, human AXL transiently expressed by HEK-293F cells (Homo sapiens, UniProt P30530)
- T1 construct: HEK-293F cells transiently expressing full length human AXL; expressed in transfected cells; host or cells: HEK-293F
- PROTOCOL NOTES: Homogeneous antigen specific screening assay (FMAT)
- SETUP CONDITIONS: binding to human AXL on HEK-293F cells
PARAMETER MEASURED: Maximal binding (Arbitrary units)
Give bare numbers, in Arbitrary units.

Maximal binding lookup needed for IgG1-AXL-187: human IgG1,κ anti-AXL antibody, VH SEQ ID NO:19, VL SEQ ID NO:20 (antibody, V domains shown, homo sapiens) VH: QVPLQQWGAGLLKPSETLSLTCAVYGGSFSGYHWSWIRQPPGKGLEWIGEISHSGRTNYNPSLKSRVTISIDTSKNQFSLKLSSVTAADTAVYYCASFITMIRGTIITHFDYWGQGTLVTVSS VL: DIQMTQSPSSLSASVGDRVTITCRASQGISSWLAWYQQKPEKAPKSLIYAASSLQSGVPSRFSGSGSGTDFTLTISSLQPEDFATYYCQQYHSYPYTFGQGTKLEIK , thanks. 2563
